Target: T1, Cyno TL1A (cyno, UniProt G7PRK8 72-251)
T1 sequence: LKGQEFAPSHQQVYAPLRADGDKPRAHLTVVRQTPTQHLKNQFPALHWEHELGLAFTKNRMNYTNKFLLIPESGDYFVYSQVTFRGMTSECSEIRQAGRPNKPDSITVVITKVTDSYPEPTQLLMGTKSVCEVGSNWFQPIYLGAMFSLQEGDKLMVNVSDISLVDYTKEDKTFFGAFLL
Test: SPR, Fab format, average
readout label: pKd
Remember, pKd is on a log scale: it is -log10 of the molar concentration.

Value of pKd reported for the binder Antibody 11 (Fab format) (Fab, V domains shown, High priority lead, Fab format) VH: QVQLQESGPGLVRPSQTLSLTCTVSGFDMGDTYMHWVRQRPGRGLEWMGRIEPAGGHTKYNPSLKSRVTITRDTSKNQVSLRLSSVTAADTAVYYCVRSGGMPDVWGQGSLVTVSS VL: DIQMTQSPSSLSASVGDRVTITCRASQGVEYMYWYQQKPGKAPKLLIYSASNLASGVPSRFSGSGSGTDFTFTISSLQPEDIATYYCQQWEGNPRTFGQGTKVEIK is 9.42

Value of pKd reported for the binder Antibody 6 (Fab format) (Fab, V domains shown, High priority lead, Fab format) VH: QVQLQESGPGLVRPSQTLSLTCTVSGFDMADTYMHWVRQRPGRGLEWMGRIEPAGGHTKYNPSLKSRVTITRDTSKNQVSLRLSSVTAADTAVYYCVRSGGLPDMWGQGSLVTVSS VL: DIQMTQSPSSLSASVGDRVTITCRASQGVEYMYWYQQKPGKAPKLLIYSASNLASGVPSRFSGSGSGTDFTFTISSLQPEDIATYYCQQWEGNPRTFGQGTKVEIK is 9.59

Value of pKd reported for the binder Antibody 19 (Fab format) (Fab, V domains shown, High priority lead, Fab format) VH: QVQLQESGPGLVRPSQTLSLTCTVSGFDITDTYMHWVRQRPGRGLEWMGRIEPAGGHTKYNPSLKSRVTITRDTSKNQVSLRLSSVTAADTAVYYCVRSGGLPDVWGQGSLVTVSS VL: DIQMTQSPSSLSASVGDRVTITCRASQGVEYMYWYQQKPGKAPKLLIYYASNLASGVPSRFSGSGSGTDFTFTISSLQPEDIATYYCQQWEGNPRTFGQGTKVEIK is 8.29

Value of pKd reported for the binder Antibody 2 (Fab format) (Fab, V domains shown, High priority lead, Fab format) VH: QVQLQESGPGLVRPSQTLSLTCTVSGLDPDDTYMHWVRQRPGRGLEWMGRIEPAGGHTKYNPSLKSRVTITRDTSKNQVSLRLSSVTAADTAVYYCVISGGLPDVWGQGSLVTVSS VL: DIQMTQSPSSLSASVGDRVTITCRASSSVSYMYWYQQKPGKAPKLLIYATSNLASGVPSRFSGSGSGTDFTFTISSLQPEDIATYYCQQWEGNPRTFGQGTKVEIK is 9.03

Value of pKd reported for the binder Antibody 9 (Fab format) (Fab, V domains shown, High priority lead, Fab format) VH: QVQLQESGPGLVRPSQTLSLTCTVSGFDIQDTYMHWVRQRPGRGLEWMGRIEPAGGHTKYNPSLKSRVTITRDTSKNQVSLRLSSVTAADTAVYYCVRSGGLPDAWGQGSLVTVSS VL: DIQMTQSPSSLSASVGDRVTITCRASQGVGYMYWYQQKPGKAPKLLIYSASNLASGVPSRFSGSGSGTDFTFTISSLQPEDIATYYCQQWEGNPRTFGQGTKVEIK is 8.70
